assay: in vivo; conditions: mouse
Peptide text beside a SMILES is read from it. * marks the point of attachment. For = O=C*

{"COMPOUND": "CSCC[C@H](NC=O)C(=O)N[C@@H](CC(C)C)C(=O)N[C@@H](Cc1ccccc1)C(=O)N[C@@H](Cc1ccccc1)C(=O)O [HK-X, f-Met-Leu-Phe-Phe] (For-MLFF-OH; C-terminus assumed)", "half-life": "< 30 min"}
